Below: molecules with IC50 recorded for Tyrosine-protein phosphatase non-receptor type 11 (Homo sapiens, UniProt Q06124) in separate published works.
Entry rule: numbers only, all in nM.

Answered examples (2):
{"smiles-entry": "Cn1c(CCCC(=O)NCc2ccc3c(c2)OCO3)c(I)c2cc(C(=O)O)c(O)cc21", "subject-of-test": "Tyrosine-protein phosphatase non-receptor type 11 (Homo sapiens, UniProt Q06124)", "unit-info": "nM", "IC50": 12600}
{"smiles-entry": "Cc1nc2c(-c3cccc(Cl)c3F)n[nH]c2nc1N1CCC2(CC1)CO[C@@H](C)[C@H]2N", "subject-of-test": "Tyrosine-protein phosphatase non-receptor type 11 (Homo sapiens, UniProt Q06124)", "unit-info": "nM", "IC50": 9.8}

stdin: Missing value: IC50, Tyrosine-protein phosphatase non-receptor type 11 (Homo sapiens, UniProt Q06124), entry Cc1nc(N2CCC3(CC2)Cc2ccccc2[C@H]3N)n2ccnc2c1-c1ccnc(N)c1Cl . Fill in?
stdout: 12.1
